- measured-target: T1, human VEGF (hVEGF) (human, UniProt P15692 181-395);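 note: fab variants injected over immobilized hVEGF on a CM5 chip, rate constants fitted with a one-to-one Langmuir model, Kd derived as koff over kon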
- T1 construct: also called VEGF-A
- T1 sequence: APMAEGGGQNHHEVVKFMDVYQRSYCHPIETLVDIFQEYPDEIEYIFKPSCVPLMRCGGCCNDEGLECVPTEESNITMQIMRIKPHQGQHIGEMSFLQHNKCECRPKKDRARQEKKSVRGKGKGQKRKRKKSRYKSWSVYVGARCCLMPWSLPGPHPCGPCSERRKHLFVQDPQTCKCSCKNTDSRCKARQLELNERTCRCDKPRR
- assay-explanation: SPR
readout: kon

Asked: I'd like to know its kon. The binder in question is LCcombo1 (G6.31 WT VH with LCcombo1 VL) (Fab, V domains shown, Fab) VH: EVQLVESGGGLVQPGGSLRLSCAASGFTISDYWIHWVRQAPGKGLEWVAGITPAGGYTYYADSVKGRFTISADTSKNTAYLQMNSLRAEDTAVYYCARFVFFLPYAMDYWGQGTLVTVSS VL: DIQMTQSPESLSASVGDEVTITCRASQDVSTAVAWYQQKPGKAPKLLIYSASFLYSGVPSRFSGSGSGTDFTLTISSLQPEDAATYYCQQGYGAPFTFGQGTKVEIK
Given back: 447000 M⁻¹ s⁻¹

Asked: I'd like to know its kon. The binder in question is HCLC3 (Fab, V domains shown, Fab) VH: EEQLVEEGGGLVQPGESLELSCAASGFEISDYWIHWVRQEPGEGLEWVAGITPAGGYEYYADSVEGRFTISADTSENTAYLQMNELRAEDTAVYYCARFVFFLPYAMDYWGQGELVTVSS VL: DIQMTQSPESLSASVGDEVTITCRASQDVSTAVAWYQQKPGEAPKLLIYSASFLYSGVPSRFSGSGSGTDFTLTISSLQPEDAATYYCQQGYGAPFTFGQGTKVEIK
Given back: 1.84e+06 M⁻¹ s⁻¹

Asked: I'd like to know its kon. The binder in question is HCLC2 (Fab, V domains shown, Fab) VH: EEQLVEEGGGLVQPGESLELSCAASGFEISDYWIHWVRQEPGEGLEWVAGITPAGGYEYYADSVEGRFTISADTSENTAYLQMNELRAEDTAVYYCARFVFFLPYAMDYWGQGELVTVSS VL: DIQMTQSPSSLSASVGDEVTITCRASQDVSTAVAWYQQKPGEAPKLLIYSASFLYSGVPSRFSGSGSGTDFTLTIESLQPEDAATYYCQQGYGAPFTFGQGTKVEIK
Given back: 2.12e+06 M⁻¹ s⁻¹

Asked: I'd like to know its kon. The binder in question is HCLC5 (Fab, V domains shown, Fab) VH: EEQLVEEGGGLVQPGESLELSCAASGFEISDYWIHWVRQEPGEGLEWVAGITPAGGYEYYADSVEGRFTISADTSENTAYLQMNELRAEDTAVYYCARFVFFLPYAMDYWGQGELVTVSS VL: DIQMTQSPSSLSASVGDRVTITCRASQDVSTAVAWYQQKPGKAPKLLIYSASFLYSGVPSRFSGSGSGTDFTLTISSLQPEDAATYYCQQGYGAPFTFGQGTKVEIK
Given back: 1.81e+06 M⁻¹ s⁻¹

Asked: I'd like to know its kon. The binder in question is R19HCLC4 (Fab, V domains shown, Fab) VH: EEQLVEEGGGLVQPGESLRLSCAASGFEISDYWIHWVRQEPGEGLEWVAGITPAGGYEYYADSVEGRFTISADTSENTAYLQMNELRAEDTAVYYCARFVFFLPYAMDYWGQGELVTVSS VL: DIQMTQSPSSLSASVGDEVTITCRASQDVSTAVAWYQQKPGKAPKLLIYSASFLYSGVPSRFSGSGSGTDFTLTISSLQPEDAATYYCQQGYGAPFTFGQGTKVEIK
Given back: 284000 M⁻¹ s⁻¹
